# Test system: MARIMO
# procedure_text: cell viability relative to vehicle control; higher = less cytotoxic;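 further: after 48 h exposure read by CellTiter-Glo luminescence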
# particulars: 10 µM; SRSF2 genotype: SRSF2 P95H/wt
# key: entry, value: cell viability
Write it as a number; the unit % goes unstated.

[[record]]
molecule = "CC1=C(/C=C/C(C)=C/C=C/C(C)=C/C=C/C=C(C)/C=C/C=C(C)/C=C/C2=C(C)CCCC2(C)C)C(C)(C)CCC1 [Beta Carotene]"
measured_target = "MARIMO"
assay_value = 93.3


The record that follows has no cell viability shown yet.
Please fill in: cell viability reported for CCOc1ccc(Cc2cc([C@@H]3O[C@H](SC)[C@@H](O)[C@H](O)[C@H]3O)ccc2Cl)cc1 [Sotagliflozin (LX4211)] = 86.3

###

# Test system: K562
# procedure_text: cell viability relative to vehicle control; higher = less cytotoxic
# particulars: 10 µM; SRSF2 genotype: SRSF2 wt/wt
Counter-ions that a name gives are not always drawn.
measured_parameter: cell viability (%)
Write it as a number; the unit % goes unstated.

Worked cases, answers included:
[[record]]
compound = "NC(=O)c1cnc2[nH]ccc2c1N[C@@H]1[C@@H]2CC3C[C@H]1C[C@@](O)(C3)C2"
measured_target = "K562"
assay_value = 98.6

[[record]]
compound = "CCOC(=O)[C@H](CCc1ccccc1)N[C@@H](C)C(=O)N(CC(=O)O)C1Cc2ccccc2C1 [Delapril Hydrochloride]"
measured_target = "K562"
assay_value = 95.8

[[record]]
compound = "CNC(=O)c1ccc(C)c(-n2c(C)cc(OCc3ccc(F)cc3F)c(Br)c2=O)c1"
measured_target = "K562"
assay_value = 82.4

[[record]]
compound = "CCNC(=O)c1noc(-c2cc(C(C)C)c(O)cc2O)c1-c1ccc(CN2CCOCC2)cc1"
measured_target = "K562"
assay_value = 25.6

[[record]]
compound = "CC1=NN(c2ccccc2)C(=O)C1"
measured_target = "K562"
assay_value = 107


Please fill in: cell viability reported for `COC(=O)C1=CO[C@@H](O[C@@H]2O[C@H](CO)[C@@H](O)[C@H](O)[C@H]2O)[C@H]2[C@@H]1C(=O)C[C@@H]2C` = 104

Please fill in: cell viability reported for `CSc1ccc(C(=O)/C=C/c2cc(C)c(OC(C)(C)C(=O)O)c(C)c2)cc1` = 88.1

Please fill in: cell viability reported for CCCCCCCCCCCC[N+](C)(C)CCOc1ccccc1 [Domiphen Bromide] = 5.16

Please fill in: cell viability reported for `C=C1[C@H](CO)[C@@H](O)C[C@@H]1n1cnc2c(=O)[nH]c(N)nc21` = 103

Please fill in: cell viability reported for `O=C(NCc1ccncc1)C12CC3CC(C1)CC(c1ccc(Cl)cc1)(C3)C2` = 72.3

Please fill in: cell viability reported for `CC(=O)N1CCN(CCOc2ccc(C3CCN(C4=Nn5c(nnc5C(F)(F)F)CC4)CC3)cc2)CC1` = 71.5

###

# System: MARIMO
# procedure_text: cell viability relative to vehicle control; higher = less cytotoxic
# particulars: 10 µM; SRSF2 genotype: SRSF2 P95H/wt
Counter-ions that a name gives are not always drawn.
# key: entry, value: cell viability
Write it as a number; the unit % goes unstated.

[[record]]
molecule = "NS(=O)(=O)c1cc(Cl)c(Cl)c(S(N)(=O)=O)c1 [Dichlorphenamide (Diclofenamide)]"
measured_target = "MARIMO"
assay_value = 91.9

[[record]]
molecule = "CCCCCCCN(CC)CCCC(O)c1ccc(NS(C)(=O)=O)cc1 (stereo not drawn) [Ibutilide fumarate]"
measured_target = "MARIMO"
assay_value = 91.6


The record that follows has no cell viability shown yet.
Please fill in: cell viability reported for COc1cc(CCC(=O)CC(=O)CCc2ccc(O)c(OC)c2)ccc1O [Tetrahydrocurcumin] = 90.2

###

# Test system: OCI-AML2
# procedure_text: cell viability relative to vehicle control; higher = less cytotoxic
# particulars: 10 µM; SRSF2 genotype: wt/wt
Structures can show the parent of a compound that is named as a salt.
The label yes (1) is reserved for cell viability strictly under 40%; no (0) covers values equal to or above it.

[[record]]
compound = "CC(=O)c1ccc2c(c1)c1cc(C(C)=O)ccc1n2CCNC(C)C"
category = "yes (1)"


Data request: Is the reported cell viability for `COc1cc(Nc2ncc(F)c(Nc3ccc4c(n3)N(COP(=O)(O)O)C(=O)C(C)(C)O4)n2)cc(OC)c1OC` strictly below 40%?
Data returned: yes (1)

Data request: Is the reported cell viability for CC(=O)SCC(Cc1ccccc1)C(=O)NCC(=O)OCc1ccccc1 (centres undefined) strictly below 40%?
Data returned: no (0)

Data request: Is the reported cell viability for C[C@]12CC[C@@H]3c4ccc(O)cc4C[C@@H](CCCCCCCCC[S+]([O-])CCCC(F)(F)C(F)(F)F)[C@H]3[C@@H]1CC[C@@H]2O (some centres undefined) strictly below 40%?
Data returned: no (0)

Data request: Is the reported cell viability for OC(c1cc(C(F)(F)F)nc2c(C(F)(F)F)cccc12)C1CCCCN1 (centres undefined) [Mefloquine HCl] strictly below 40%?
Data returned: yes (1)

Data request: Is the reported cell viability for `O=C(c1ccc(Oc2ccccc2)cc1Cl)c1c[nH]c2ncnc(N[C@@H]3CC[C@@H](CO)OC3)c12` strictly below 40%?
Data returned: yes (1)

Data request: Is the reported cell viability for O=C1NC(=O)[C@@H](c2cn3c4c(cccc24)CCC3)[C@@H]1c1c[nH]c2ccccc12 [ARQ 197 (Tivantinib)] strictly below 40%?
Data returned: yes (1)

Data request: Is the reported cell viability for CC(O)c1cc(C(=O)N[C@@H](C)Cn2ccc(-c3ccc(C#N)c(Cl)c3)n2)n[nH]1 (some centres undefined) strictly below 40%?
Data returned: no (0)

Data request: Is the reported cell viability for `c1coc(CNc2ncnc3[nH]cnc23)c1` strictly below 40%?
Data returned: no (0)

###

# System: MOLM14
# procedure_text: cell viability relative to vehicle control; higher = less cytotoxic
# particulars: 10 µM; SRSF2 genotype: SRSF2 wt/wt
measured_parameter: cell viability (%)
Write it as a number; the unit % goes unstated.

Worked cases, answers included:
[[record]]
compound = "C[C@]12C[C@@H](O)[C@@H]3C[C@@]1(O[C@@H]1O[C@H](CO)[C@@H](O)[C@H](O)[C@H]1O)[C@@]3(COC(=O)c1ccccc1)C(=O)O2"
assay_value = 98.4

[[record]]
compound = "CNC(=O)c1ccc(N2C(=S)N(c3ccc(C#N)c(C(F)(F)F)c3)C(=O)C2(C)C)cc1F [MDV3100 (Enzalutamide)]"
assay_value = 90.3

[[record]]
compound = "O=C(O)CCCNC(=O)c1cccnc1"
assay_value = 106

[[record]]
compound = "CCCCC(CC)COC(=O)C=Cc1ccc(OC)cc1 (stereo not given) [Octinoxate]"
assay_value = 108

[[record]]
compound = "CC(=O)NS(=O)(=O)c1ccc(N)cc1 [Sulfacetamide Sodium]"
assay_value = 101


Hey, MOLM14 data for `C[C@H](NCc1ccc(OCc2cccc(F)c2)cc1)C(N)=O` : cell viability came out at 98.2

Hey, MOLM14 data for `Cc1ccc(-n2nc(C(C)(C)C)cc2NC(=O)Nc2ccc(OCCN3CCOCC3)c3ccccc23)cc1` : cell viability came out at 88.1

Hey, MOLM14 data for `CC(=O)c1cc([N+](=O)[O-])c(Sc2ccc(F)cc2F)s1` : cell viability came out at 12.3

###

# Tested on: K562
# procedure_text: cell viability relative to vehicle control; higher = less cytotoxic
# particulars: 10 µM; SRSF2 genotype: SRSF2 wt/wt
measured_parameter: cell viability (%)
Write it as a number; the unit % goes unstated.

Worked cases, answers included:
[[record]]
molecule = "CN1CCN(S(=O)(=O)c2ccc(-c3cnc(N)c(C(=O)Nc4cccnc4)n3)cc2)CC1"
measured_parameter = "cell viability"
assay_value = 73.6

[[record]]
molecule = "CCN1C(=O)CNc2ncc(-c3ccc(-c4nc[nH]n4)nc3C)nc21"
measured_parameter = "cell viability"
assay_value = 23.9

[[record]]
molecule = "CC(=O)N1CCC(Nc2cc(C(=O)NC[C@H](O)CN3CCc4ccccc4C3)ncn2)CC1"
measured_parameter = "cell viability"
assay_value = 90.9

[[record]]
molecule = "O=C(O)CCCC[C@@H]1SC[C@@H]2NC(=O)N[C@@H]21"
measured_parameter = "cell viability"
assay_value = 96.3

[[record]]
molecule = "O=c1cc(-c2ccc(O)cc2)oc2cc(O)cc(O)c12"
measured_parameter = "cell viability"
assay_value = 96


Please fill in: cell viability reported for `CC[C@@H]([C@H](C)O)n1ncn(-c2ccc(N3CCN(c4ccc(OC[C@@H]5CO[C@@](Cn6cncn6)(c6ccc(F)cc6F)C5)cc4)CC3)cc2)c1=O` = 87

Please fill in: cell viability reported for `Cc1cc(-c2ccc(CC(=O)Nc3ccc(-c4cccnc4)cc3)cc2)ccn1` = 86.9

Please fill in: cell viability reported for C=CC(C)(O)CCC=C(C)C (configuration not stated) = 107

Please fill in: cell viability reported for CC1(C)C2CCC1(C)C(O)C2 (single isomer, unassigned; (+)) [(+)-Borneol] = 105
